Data origin, for the record: ChEMBL document CHEMBL3885861

# Species on record: Rattus norvegicus
# Experiment notes: Open TG-GATES - Regimen: Single
# Assay type: toxicity, organism-based, Sprague-Dawley
# Parameters: regimen Single, gender Male, age 6 weeks
# Measurement conditions: in vivo, po, 0 mg/kg, 9 h, tissue Blood, route gavage, dose level Control
Assay endpoint: RBC (x10_4/ul)
# value in x10_4/ul; strip the unit string

>  <Compound>
CSc1ccc2c(c1)N(CCC1CCCCN1C)c1ccccc1S2 (stereo unspecified)

>  <RBC (x10_4/ul)>
620.6

$$$$

Q) Determine from records and report RBC for `C[C@H](CS)C(=O)N1CCC[C@H]1C(=O)O`
A) 607

Q) Determine from records and report RBC for `O=C(O)c1cn(C2CC2)c2cc(N3CCNCC3)c(F)cc2c1=O`
A) 572.4

Q) Determine from records and report RBC for `O=C(O)c1cc(/N=N/c2ccc(S(=O)(=O)Nc3ccccn3)cc2)ccc1O`
A) 608.8

Q) Determine from records and report RBC for `NC(=O)N/N=C/c1ccc([N+](=O)[O-])o1`
A) 590.6

Q) Determine from records and report RBC for `CN(C)CCC=C1c2ccccc2CCc2ccccc21`
A) 611.8
